Source of measurements: ChEMBL document CHEMBL5634192

target-system: von Hippel-Lindau disease tumor suppressor/Interleukin-1 receptor-associated kinase 4 (Homo sapiens, UniProt Q9NWZ3+P40337)
Sequence (Q9NWZ3 whole entry): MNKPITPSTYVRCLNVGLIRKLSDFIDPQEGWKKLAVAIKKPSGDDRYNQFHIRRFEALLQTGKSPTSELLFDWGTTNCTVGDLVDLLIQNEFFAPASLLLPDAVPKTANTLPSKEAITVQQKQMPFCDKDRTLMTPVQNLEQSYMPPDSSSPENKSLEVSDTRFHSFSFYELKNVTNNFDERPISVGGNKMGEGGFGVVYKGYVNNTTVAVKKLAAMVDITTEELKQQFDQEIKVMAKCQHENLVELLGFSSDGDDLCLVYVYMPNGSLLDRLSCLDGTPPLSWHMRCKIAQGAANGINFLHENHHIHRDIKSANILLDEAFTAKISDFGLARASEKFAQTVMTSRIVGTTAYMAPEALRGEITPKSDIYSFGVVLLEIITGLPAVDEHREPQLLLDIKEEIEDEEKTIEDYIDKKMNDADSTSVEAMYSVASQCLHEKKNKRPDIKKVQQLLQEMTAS
Sequence (P40337 whole entry): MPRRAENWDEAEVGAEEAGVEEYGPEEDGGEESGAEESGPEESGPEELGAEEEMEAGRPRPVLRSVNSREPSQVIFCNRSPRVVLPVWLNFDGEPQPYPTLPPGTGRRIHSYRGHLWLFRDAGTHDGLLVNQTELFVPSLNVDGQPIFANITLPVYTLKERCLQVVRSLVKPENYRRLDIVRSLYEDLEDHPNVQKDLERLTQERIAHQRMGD
experiment-description: PROTAC activity at VHL E3 ligase/IRAK4 in human PBMC cells assessed as induction of degradation of IRAK4 incubated overnight by ELISA method
Assay type: cell-based
outcome-measure: DC50

[[record]]
compound = "CC(C)Oc1cc2c(cc1NC(=O)c1cnn3cccnc13)CN(C1CCN(CC3CCN(c4ccc(C5CCC(=O)NC5=O)cc4)CC3)CC1)C2=O (stereo not drawn)"
outcome_measure = "DC50"
recorded_measurement = "1 nM"

[[record]]
compound = "O=C1CCC(c2ccc(N3CCC4(CC3)CC(CN3CCC(n5cc6cc(NC(=O)c7cnn8cccnc78)c(OCC7CC7)cc6n5)CC3)C4)cc2F)C(=O)N1 (stereo not drawn)"
outcome_measure = "DC50"
recorded_measurement = "1 nM"

[[record]]
compound = "CC(C)Oc1nc2c(cc1NC(=O)c1cnn3cccnc13)CN(C1CCN(CC3CCN(c4ccc(C5CCC(=O)NC5=O)c(F)c4)CC3)CC1)C2=O (stereo not drawn)"
outcome_measure = "DC50"
recorded_measurement = "< 1 nM"

[[record]]
compound = "CC(C)Oc1cc2c(cc1NC(=O)c1cnn3cccnc13)CN(C1CCN(CC3CCN(c4ccc(C5CCC(=O)NC5=O)cn4)CC3)CC1)C2=O (stereo not drawn)"
outcome_measure = "DC50"
recorded_measurement = "< 1 nM"

[[record]]
compound = "O=C1CCC(c2ccc(N3CCC4(CCC(CN5CCC(n6cc7cc(NC(=O)c8cnn9cccnc89)c(OCC8CC8)cc7n6)CC5)CC4)CC3)cc2F)C(=O)N1 (stereo not drawn)"
outcome_measure = "DC50"
recorded_measurement = "< 1 nM"

[[record]]
compound = "CC(C)Oc1cc2c(cc1NC(=O)c1cnn3cccnc13)CN(C1CCN(CC3CCN(c4ccc(C5CCC(=O)NC5=O)c(F)c4)CC3)CC1)C2=O (stereo not drawn)"
outcome_measure = "DC50"
recorded_measurement = "< 1 nM"

[[record]]
compound = "O=C1CCC(c2ccc(N3CC(F)(CN4CCC(n5cc6cc(NC(=O)c7cnn8cccnc78)c(OCC7CC7)cc6n5)CC4)C3)cc2F)C(=O)N1 (stereo not drawn)"
outcome_measure = "DC50"
recorded_measurement = "< 1 nM"

[[record]]
compound = "O=C1CCC(c2ccc(N3CC(F)(CN4CCC(n5cc6cc(NC(=O)c7cnn8cccnc78)c(N7CCC(N8CCC8)CC7)cc6n5)CC4)C3)cc2F)C(=O)N1 (stereo not drawn)"
outcome_measure = "DC50"
recorded_measurement = "< 1 nM"

